- Test system: CCRIS mutagenicity, Ames/micronucleus/aberration tests
- assay-overview: CCRIS mutagenicity studies
- test-conditions: Test System: AMES SALMONELLA TYPHIMURIUM; Strain/Indicator: TA98; Metabolic Activation: RAT, LIVER, S-9, AROCLOR 1254; Method: STANDARD PLATE
Calls of active or inactive are those of the source. No rule for the calls is given here.
Labels: label 1 for active, label 0 for inactive

structure_smiles=CC(=O)n1ncc(Cl)c(Cl)c1=O group_label="label 0"
structure_smiles=Cn1cnc2c(N)ncnc21 group_label="label 1"
structure_smiles=CCCCOCCOCCO group_label="label 0"
structure_smiles=CN(N=O)C(=O)N[C@@H](C=O)[C@@H](O)[C@H](O)[C@H](O)CO group_label="label 0"

====

- Test system: CCRIS mutagenicity, Ames/micronucleus/aberration tests
- assay-overview: CCRIS mutagenicity studies
- test-conditions: Test System: AMES SALMONELLA TYPHIMURIUM; Strain/Indicator: TA1535; Metabolic Activation: NONE; Method: PREINCUBATION
- Excerpt: The CCRIS database contains chemical records with carcinogenicity, mutagenicity, tumor promotion, and tumor inhibition test results. It was developed by the National Cancer Institute (NCI). Data are derived from studies cited in primary journals, current awareness tools, NCI reports, and other sources. Test results have been reviewed by experts in carcinogenesis and mutagenesis. CCRIS provides historical information from the years 1985 - 2011. It is no longer updated. […]
Calls of active or inactive are those of the source. The rule behind the calls is not given here.
Labels: active, inactive

compound=Cc1ccc(N=C=O)cc1N=C=O group_label=inactive
compound=Cc1cc(-c2ccc(N=Nc3cc(S(=O)(=O)O)c4ccccc4c3N)c(C)c2)ccc1N=Nc1cc(S(=O)(=O)O)c2ccccc2c1N group_label=inactive
compound=O=C1CCCCCCCCCCCC(=O)OCCO1 group_label=inactive
compound=Nc1cc(Cl)ccc1[N+](=O)[O-] group_label=inactive
compound="CC(=O)c1cc(NC(=O)NC(C)(C)C)ccc1OCC(O)CNC(C)(C)C (stereo unspecified)" group_label=inactive
compound=CCCCCc1cc(O)cc(O)c1 group_label=inactive
compound="C[N+]1([O-])CCC[C@H]1c1cccnc1 (stereo partly specified)" group_label=inactive
compound=O=C(Cl)c1ccc(Cl)cc1 group_label=inactive
compound="c1ccc2c(CCC3CO3)cccc2c1 (stereo unspecified)" group_label=active
compound=c1ccc2sc(SSc3nc4ccccc4s3)nc2c1 group_label=inactive
compound=CCCCCCCCCCCCCC(=O)O group_label=inactive
compound=Nc1ccc2cc3ccc(N)cc3nc2c1 group_label=inactive
compound=OO group_label=inactive
compound=O=c1ccc(=O)[nH][nH]1 group_label=inactive
compound=CCC(=O)O group_label=inactive
compound=O=S1(=O)CC=CC1 group_label=inactive
compound=C=CCc1ccc(OC)c(OC)c1 group_label=inactive
compound=N#CCc1ccccc1[N+](=O)[O-] group_label=inactive
compound=O=C(O)c1ccc([N+](=O)[O-])cc1 group_label=inactive
compound="CC(=O)OC1CC(C)OC(C)O1 (stereo unspecified)" group_label=inactive
compound=CC(C)(C)c1ccc(O)c(O)c1 group_label=inactive
compound=O group_label=inactive
compound=CCOC(=O)[C@H](CCc1ccccc1)N[C@@H](C)C(=O)N1[C@H](C(=O)O)C[C@H]2CCCC[C@@H]21 group_label=inactive
compound=OCC(CBr)(CBr)CBr group_label=inactive
compound=O=[N+]([O-])c1ccc2c(c1)Cc1ccccc1-2 group_label=active
compound=N#CN=C(N)N group_label=inactive
compound=O=C(O)CBr group_label=inactive
compound=CC(C)Nc1ccccc1 group_label=inactive
compound=Cc1cnc[nH]1 group_label=inactive
compound=Nc1ccccc1N group_label=inactive
compound="CC(C)(C)OCC1CO1 (stereo unspecified)" group_label=active
compound=CCCCN(CCCCO)N=O group_label=inactive
compound=CCCCOC(=O)c1ccccc1C(=O)OC1CCCCC1 group_label=inactive
compound=CCCCOP(=O)(OCCCC)Oc1ccccc1 group_label=inactive
compound=O=C1OC(=O)c2ccccc21 group_label=inactive
compound=Nc1ccc(C(=O)O)cc1 group_label=inactive
compound=Cc1ccccc1C(N)=O group_label=inactive
compound=Nc1ccc2nc3ccccc3cc2c1 group_label=inactive
compound=Nc1cc([N+](=O)[O-])cc(S(=O)(=O)O)c1O group_label=inactive
compound=Cc1ccc(N)cc1C group_label=inactive
compound=Nc1ccc(Cl)cc1Cl group_label=inactive
compound=[Li+] group_label=inactive
compound=Nc1ccc([N+](=O)[O-])cc1O group_label=inactive
compound=C=C(C)[C@H]1CC=C(C)C(=O)C1 group_label=inactive
compound=CCN1CCN(C(=O)N[C@@H](C(=O)N[C@@H]2C(=O)N3[C@@H]2SC(C)(C)[C@@H]3C(=O)O)c2ccccc2)C(=O)C1=O group_label=inactive
compound="O=c1n(CC2CO2)c(=O)n(CC2CO2)c(=O)n1CC1CO1 (stereo unspecified)" group_label=active
compound=CN(Cc1cnc2nc(N)nc(N)c2n1)c1c(Cl)cc(C(=O)N[C@@H](CCC(=O)O)C(=O)O)cc1Cl group_label=inactive
compound=CSCCC=O group_label=inactive
compound=Clc1cccc(Cl)c1 group_label=inactive
compound=Nc1nc(N)c2nc(-c3ccccc3)c(N)nc2n1 group_label=inactive
compound=CCNc1ccccc1 group_label=inactive
compound=O=Cc1c(Cl)cccc1Cl group_label=inactive
compound=[CH3][Pb]([CH3])([CH3])[CH3] group_label=inactive
compound=CN(C)CCN(Cc1cccs1)c1ccccn1 group_label=inactive
compound=CC1=CC(=C(c2ccc(N)cc2)c2ccc(N)cc2)C=CC1=N group_label=inactive
compound=Nc1cc(Cl)ccc1O group_label=inactive

====

- Test system: CCRIS mutagenicity, Ames/micronucleus/aberration tests
- assay-overview: CCRIS mutagenicity studies
- test-conditions: Test System: AMES SALMONELLA TYPHIMURIUM; Strain/Indicator: TA100; Metabolic Activation: MOUSE, LIVER, S-9, 3-METHYLCHOLANTHRENE; Method: PREINCUBATION
Activity calls are given as the source filed them. No rule for the calls is given here.
assay-metric: mutagenic call

molecule="CC(=O)CN(CC(C)O)N=O (stereo not drawn)" observed="active; positive"
molecule="CC(=O)OC(C)CN(CC(C)OC(C)=O)N=O (stereo not drawn)" observed="active; positive"
molecule="CN(CC(O)CO)N=O (stereo not drawn)" observed="active; positive"

====

- System: CCRIS mutagenicity, Ames/micronucleus/aberration tests
- assay-overview: CCRIS mutagenicity studies
- test-conditions: Test System: AMES SALMONELLA TYPHIMURIUM; Strain/Indicator: TA1537; Metabolic Activation: HAMSTER, LIVER, S-9, AROCLOR 1254 (10%); Method: PREINCUBATION
Active and inactive are the calls of the source. No rule for the calls is given here.
Labels: yes = active, no = inactive

compound=COc1c(Cl)c(Cl)c(Cl)c(Cl)c1Cl group_label=no
compound=C[O+](C)C.[Cl][Sb-]([Cl])([Cl])([Cl])([Cl])[Cl] group_label=no
compound=Cc1ccc(N)c(C)c1 group_label=no
compound=C=CCOC(=O)C=C group_label=no
compound=COC(C)(C)CC(C)=O group_label=no
compound=c1ccc(OP(Oc2ccccc2)Oc2ccccc2)cc1 group_label=no
compound=O=C(NO)c1ccccc1 group_label=yes
compound="C=CC1CC=CCC1 (centres undefined)" group_label=no
compound=COc1cc(-c2ccc(N/N=C3/C(=O)c4c(N)cc(S(=O)(=O)O)cc4C=C3S(=O)(=O)O)c(OC)c2)ccc1N/N=C1/C(=O)c2c(N)cc(S(=O)(=O)O)cc2C=C1S(=O)(=O)O group_label=no

====

- Tested on: CCRIS mutagenicity, Ames/micronucleus/aberration tests
- assay-overview: CCRIS mutagenicity studies
- test-conditions: End Point: IN VITRO CHROMOSOMAL ABERRATIONS; Test System: CHO CELLS; Metabolic Activation: NONE
Activity calls are given as the source filed them. No rule for the calls is given here.
Labels: y = active, n = inactive

structure_smiles=O=C1OC(=O)c2ccccc21 group_label=y
structure_smiles=Nc1ccc([N+](=O)[O-])cc1O group_label=y
structure_smiles=OO group_label=y
structure_smiles=Nc1cc([N+](=O)[O-])ccc1O group_label=y
structure_smiles=C#C[C@]1(O)CC[C@H]2[C@@H]3CCc4cc(O)ccc4[C@H]3CC[C@@]21C group_label=y
structure_smiles=CC1=CC(=O)CC(C)(C)C1 group_label=n
structure_smiles=Nc1cc(Cl)c(N)c(Cl)c1 group_label=y

====

- System: CCRIS mutagenicity, Ames/micronucleus/aberration tests
- assay-overview: CCRIS mutagenicity studies
- test-conditions: Test System: AMES SALMONELLA TYPHIMURIUM; Strain/Indicator: TA100; Metabolic Activation: NONE; Method: STANDARD PLATE
Calls of active or inactive are those of the source. The rule behind the calls is not given here.
Labels: true (1) (active), false (0) (inactive)

compound=CC(=O)Nc1ccc2c(c1)Cc1ccccc1-2 group_label="false (0)"
compound=CC(C)CCC[C@@H](C)[C@H]1CC[C@H]2[C@@H]3CC=C4CCCC[C@]4(C)[C@H]3CC[C@]12C group_label="false (0)"
compound=O=C1c2cccc3ccc4ccc5cccc1c5c4c23 group_label="false (0)"
compound=CCCCCC(=O)O[C@]1(C(C)=O)CC[C@H]2[C@@H]3CCC4=CC(=O)CC[C@@H]4[C@H]3CC[C@@]21C group_label="false (0)"
compound=CC(=O)Nc1ccc(Oc2ccc(Cl)cc2)cc1 group_label="false (0)"
compound=Nc1ncnc2c1ncn2Cc1ccccc1 group_label="false (0)"
compound="COP1(=S)OCc2ccccc2O1 (centres undefined)" group_label="true (1)"
compound=CC(=O)Nc1ccc(S(=O)(=O)O)c2cc(S(=O)(=O)O)c(N=Nc3ccc(N=Nc4ccc(S(=O)(=O)O)cc4)c4ccc(S(=O)(=O)O)cc34)c(O)c12 group_label="false (0)"
compound=Cc1c(C)c(N)c(C)c(C)c1N group_label="false (0)"
compound=CNCCN(Cc1ccc(OC)cc1)c1ccccn1 group_label="false (0)"
compound=c1ccc(CSSCc2ccccc2)cc1 group_label="false (0)"
compound=CCOC(=O)C[n+]1csc2ccccc21 group_label="false (0)"
compound=c1ccc(-c2ccc(-c3ccccc3)cc2)cc1 group_label="false (0)"
compound=CC(=O)N(O)c1ccccc1 group_label="false (0)"
compound=CC(=O)Nc1ccccc1C group_label="false (0)"
compound=O=c1[nH]sc2cc([N+](=O)[O-])ccc12 group_label="true (1)"
compound=C#CCOS(=O)(=O)c1ccc(C)cc1 group_label="false (0)"
compound=C[Si](C)(C)O[Si](C)(C)O[Si](C)(C)C group_label="false (0)"
compound=COP(=S)(OC)Oc1ccc(N=O)c(C)c1 group_label="true (1)"
